switch fluorescence ratio reference
test system: ATP; assay: switch fluorescence ratio, 500 uM ATP over buffer (Cy3 cluster intensity, sum of 5 cycles each) (fold (ratio)); higher = stronger signal-on switching upon ATP binding; sequences stand for … in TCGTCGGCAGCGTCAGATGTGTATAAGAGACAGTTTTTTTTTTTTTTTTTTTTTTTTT…TC; settings: aptamer strand: ATP DNA aptamer (quencher-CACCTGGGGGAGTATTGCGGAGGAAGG + anchor), 100 nM annealed; ATP concentration: 500 uM;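 further: ATP exposure 15 min at 22 °C before imaging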
value-type: switch fluorescence ratio

* ACTGTAATTC | 1.19
* TTAACACGGA | 1.01
* TATATGGGGT | 1
* ACGGGTTAGA | 1.02
* CAGTTTATGA | 0.971
* GGTATATTAG | 0.99
* TTTATTAGTT | 0.998
* AAAAGTATGG | 1
* CACGTTTGGG | 1.01
* TTAGGAAAGG | 1.06
* GCGGGTACTG | 1
* CGTCCGAGGT | 1.3
* AGGGCGCGTG | 0.995
* CCTGAGACAC | 1.08
* ATAAGTGTTG | 0.979
* CCGTTTTTAC | 4.11
* TTATAATCCG | 0.988
* GCCCGCTAAT | 2.25
* AGCGAGACGT | 1.12
* TGTTGGTGC | 1.04
* GGGGCAGACT | 1.03
* GGTGTAGGCG | 0.969
* CGTTGGCCGT | 1.03
* TTTAGGGGCC | 0.987
* GGGGTGTACC | 0.985
* GTATGGGGCA | 1
* TGCTGGATT | 0.983
* TGGGGCGTGC | 1.06
* TATCGGTAGC | 1.02
* TTAGAGGATT | 1
* AAGGTATCAT | 0.978
* GGACTGTTTG | 1.01
* CGTAGGAGGA | 0.98
* CGGGTTAATG | 0.986
* CATAGTCCTC | 0.964
* TGTTTGTTGG | 0.989
* CGTCATCAGG | 1.04
* ACGATCGAAA | 1.24
* GGTTATTGTG | 0.968
* AACGTGACAG | 1.06
* TTAGGAAAGT | 0.987
* TGAGACATGC | 0.994
* AGTTTTGCCT | 0.981
* CCAGGTTTTG | 1.08
* TGAGCCGCGG | 1
* GTTTGGATGC | 0.963
* AGGAAATGTT | 1
* CTTTAATTCG | 1
* GGAAATGGGT | 1.05
* ACGTTGGGTC | 1.02
* CATAATAATC | 0.98
* ACTTTGGCGT | 1.03
* GCAGAGGGGT | 1.04
* TTTCGATTCT | 0.978
* GATTAAGGGC | 1
* GGTACTCATC | 1.02
* TTGGCGGGAC | 0.982
* GGTATTATTG | 0.998
* AAAGTGGCGT | 0.984
* ACCGCTGTGG | 1.06
* AGATTTTTTT | 0.996
* TGCGAGGATG | 1
* TGGCGTTGGG | 1.02
* TGGCCGGAAT | 1.04
* GAAGAAAGAG | 1.02
* TTTTGCGGTC | 1.02
* GGGGATGGGA | 1.01
* CAGGGGGAAT | 1.1
* TGGGGAGGGT | 1.01

----------
test system: ATP; assay: switch fluorescence ratio, 500 uM ATP over buffer (Cy3 cluster intensity, sum of 5 cycles each) (fold (ratio)); higher = stronger signal-on switching upon ATP binding; sequences stand for … in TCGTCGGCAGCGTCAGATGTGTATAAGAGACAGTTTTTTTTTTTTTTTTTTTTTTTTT…TC; conditions: aptamer strand: ATP DNA aptamer (quencher-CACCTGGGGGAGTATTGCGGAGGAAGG + anchor), 100 nM annealed; ATP concentration: 500 uM;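 further: ATP exposure 15 min at 22 °C before imaging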
value-type: switch fluorescence ratio

- CGACGAGGGG: 1
- GCCGGTGGAT: 0.979
- GCTGGCTGGC: 1.01
- ATGGAAGGTT: 0.991
- TCATCTCTGG: 0.992
- TAGAAATTGT: 0.997
- GAAGGGTAAT: 0.995
- GGGTTTGACT: 0.998
- TTGTTTAGGT: 1
- CATAGTTACG: 0.994
- TCCGGGGGAG: 1
- GCCCTGGAAC: 1.01
- ATGTTAGAAA: 1.02
- TGAGGACAGT: 1
- AGTCGGGGGA: 1.01
- GACTTTGGTG: 1.01
- AATGGGGTCT: 1.01
- AGCGGTTTCG: 0.986
- TTTAGTGACA: 0.998

----------
tested on: ATP; assay: switch fluorescence ratio, 500 uM ATP over buffer (Cy3 cluster intensity, sum of 5 cycles each) (fold (ratio)); higher = stronger signal-on switching upon ATP binding; sequences stand for … in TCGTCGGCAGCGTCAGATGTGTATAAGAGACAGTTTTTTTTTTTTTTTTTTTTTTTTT…TC; conditions: aptamer strand: ATP DNA aptamer (quencher-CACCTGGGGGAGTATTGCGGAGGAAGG + anchor), 100 nM annealed; ATP concentration: 500 uM;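 further: ATP exposure 15 min at 22 °C before imaging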
value-type: switch fluorescence ratio

• TAATTGATTA = 1
• CTGTTCTAGT = 0.963
• TCACGTTGGG = 0.999
• TATACGGTTT = 1.03
• TCACGGGCAG = 0.978
• AAGTATGTAT = 1.02
• GAATATGTAG = 0.965
• ATGTGGGCTA = 0.992
• CTCGTTGTGG = 1.25

----------
test system: ATP; experiment: switch fluorescence ratio, 500 uM ATP over buffer (Cy3 cluster intensity, sum of 5 cycles each) (fold (ratio)); higher = stronger signal-on switching upon ATP binding; sequences stand for … in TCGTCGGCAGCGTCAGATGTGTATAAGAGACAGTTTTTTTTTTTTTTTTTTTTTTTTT…TC; conditions: aptamer strand: ATP DNA aptamer (quencher-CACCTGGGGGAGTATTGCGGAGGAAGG + anchor), 100 nM annealed; ATP concentration: 500 uM;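 further: ATP exposure 15 min at 22 °C before imaging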
value-type: switch fluorescence ratio

* TACTTATGTG | 1.01
* ATAGTATATT | 0.982
* AACTATCTTG | 1
* GAAAGTGCTA | 1.07
* ACTTTGATTG | 0.982
* CGTGCTTTCT | 0.999
* CTGAGGCTGA | 1.12
* TGGTACCACT | 0.996
* AGTCGCCCGC | 1.02
* TTGTTTTTTT | 1
* GTTGATCCGA | 0.971
* TTCTGAATAT | 1.01
* CAAGGGATTG | 0.992
* TGCTGGGTCC | 1.02
* CGGGCCTCCG | 1.15
* TATTTCTGTG | 1.02
* TAGGGACGTT | 0.988
* TTGAGTGACG | 0.985
* CCACGGACAA | 1.64
* TTTTGGATTA | 1
* TCAACCTACG | 1.36
* GCTCAGTAGT | 1.03
* GTTGTTGGTG | 1.01
* AATGTGTGGG | 1.01
* AACCTGTAGG | 0.987
* GGGGGACTGG | 0.981
* TGCAATAGGG | 1.35
* ATACTTTTTT | 1.01
* GGTTTCGGTT | 1.5
* CGGTCCTGAA | 1.03
* TTAAGGGAAT | 1
* GGGGGTCCGA | 0.985

----------
test system: ATP; test: switch fluorescence ratio, 500 uM ATP over buffer (Cy3 cluster intensity, sum of 5 cycles each) (fold (ratio)); higher = stronger signal-on switching upon ATP binding; sequences stand for … in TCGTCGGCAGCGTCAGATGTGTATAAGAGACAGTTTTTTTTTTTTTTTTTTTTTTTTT…TC; details: aptamer strand: ATP DNA aptamer (quencher-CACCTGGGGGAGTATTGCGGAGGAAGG + anchor), 100 nM annealed; ATP concentration: 500 uM;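 further: ATP exposure 15 min at 22 °C before imaging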
value-type: switch fluorescence ratio

• TCGCATCCTT = 0.989
• CATGATTCA = 0.998
• TTTTCGGGGA = 0.978
• ATCTTTTGAG = 0.976
• GTGGCAAAGA = 0.993
• GGGGGATATG = 0.984
• CGGGGGGCGG = 0.986
• CTCGGGGTTG = 1.02
• ATGAGAGGGC = 1.05

----------
// values below are reported switch fluorescence ratio
test system: ATP; assay: switch fluorescence ratio, 500 uM ATP over buffer (Cy3 cluster intensity, sum of 5 cycles each) (fold (ratio)); higher = stronger signal-on switching upon ATP binding; sequences stand for … in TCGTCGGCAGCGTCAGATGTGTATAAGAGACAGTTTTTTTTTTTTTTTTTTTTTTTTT…TC; settings: aptamer strand: ATP DNA aptamer (quencher-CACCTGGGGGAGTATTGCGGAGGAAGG + anchor), 100 nM annealed; ATP concentration: 500 uM;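 further: ATP exposure 15 min at 22 °C before imaging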
value-type: switch fluorescence ratio

- ATCTGCGGGA: 1.05
- GAAGACAGTA: 1.01
- TTGGTATTTT: 0.989
- TTGACGGGGG: 1.01
- GAGAGGGGGT: 0.998
- ATCACGGGGG: 1.02
- ATCGATTGAG: 0.971
- GGACCGGCTA: 0.998
- GGCGTAAGGG: 1.01
- GATGTTTTTT: 1.07
- TTTGGACGGT: 1.02
- TATTTGAGA: 1.01
- AAGCCAGTGG: 1.01
- TAGGGCACGG: 1.02
- AGGGTTAGTT: 1.01
